The values you see were collected from patent US20250027068.

Target Or Test System: pooled human IgG (human IgG1, 2, 3 and 4)
Observable: Enzyme Activity Endpoint Assay (purified): Fab′2

# Protein, Measured
measured = [
    ("PRT-644 (protein) MQITSVWTKGVTPLTPEQFRYNNEDVIHAPYLAHQGWYDITKAFDGKDNLLCGAATAGNMLHWWFDQNKTEIEAYLSKHPEKQKIIFNNQELFDLKAAIDTKDSQTNSQLFNYFRDKAFPNLSARQLGVMPDLVLDMFINGYYLNVFKTQSTDVNRPYQDKDKRGGIFDAVFTRGDQTTLLTARHDLKNKGLNDISTIIKQELTEGRALALSHTYANVSISHVINLWGADFNAEGNLEAIYVTDSDANASIGMKKYYVGKNASGHVAISAKKIEDENIGAQVLGLFTLSSGKDIWQKLSLEHHHHHH", "882 ng/µL"),
]
